Details: 293.15 K; 101.33 kPa; Liquid; Sing-around technique in a fixed-path interferometer
value_kind: speed of sound (m/s)
State just the number; it will be interpreted in m/s.

CCCNCCC; 1209.4
CCCCNCCCC; 1261.2
CCCCCC(C)=O; 1281.9

Record request: speed of sound value, item `CCN(CC)CC`
1132.5

###

Items are presented alongside their recorded mass density.
Conditions: 298.15 K; 101.33 kPa; Liquid; Vibrating tube method
All answers are understood in kg/m3, so give the number only.

Consider the worked cases shown below.
CCCCCC(C)=O; 811.139
CCN(CC)CC; 722.729

Please give the measured mass density for this molecule: `CCCCNCCCC`
755.577

Which mass density is reported for this molecule? `CCCNCCC`
733.81

###

Settings: 293.15 K; 101.33 kPa; Liquid; Vibrating tube method
± gives the expanded uncertainty stated by the source.
As shown below, each of these molecules has a reported mass density value.
Respond with the figure and its unit, in that order.

Known results for molecules:
CCCNCCC; 738.259 ± 0.25 kg/m3
CCCCNCCCC; 759.529 ± 0.16 kg/m3
CCCCCC(C)=O; 815.433 ± 0.24 kg/m3

State the recorded mass density for this entry: `CCN(CC)CC`
727.333 ± 0.17 kg/m3

###

Settings: 303.15 K; 101.33 kPa; Liquid; Sing-around technique in a fixed-path interferometer
value_kind: speed of sound (m/s)
Give your result in m/s as a bare value.

// known answers, use as guide
CCN(CC)CC [triethylamine]; 1090.7
CCCCCC(C)=O [2-heptanone]; 1244.1
CCCCNCCCC [dibutylamine]; 1222.2

Tell me the measured speed of sound of CCCNCCC [dipropylamine] , please.
1167.6

###

Details: 298.15 K; 101.33 kPa; Liquid; Sing-around technique in a fixed-path interferometer
value_kind: speed of sound (m/s)
Field format: number, assumed m/s, no unit text.

CCCCNCCCC; 1241.4
CCCNCCC; 1188
CCN(CC)CC; 1110.9

Proceeding to the next compound to report its speed of sound.
Reported speed of sound for `CCCCCC(C)=O` : what is it?
1262.5

From: the NIST ThermoML archive (doi:10.1016/j.jct.2011.05.003)
